Origin of values: patent US20200123233A1

biological target: T1, FTM-NN protein (membrane anchorless form of the Long fusion protein, 70 kDa) (human respiratory syncytial virus, …, UniProt P12568 26-524); assay: competition ELISA on coated FTM-NN; competitor biotinylated Synagis Fab
T1 construct: domain: membrane anchorless form of the fusion protein
pEC50: −log10 of the molar value.

{"BINDER": "RSVPMP7B2 (VHH) VHH: EVQLVESGGGLVQAGDSLRLSCAASGRTFSSYAMGWFRQAPGKEREFVAAISWSDGSTYYADSVKGRFTISRDNAKNTVYLQMNSLKPEDTAVYYCAADLTSTNPGSYIYIWAYDYWGQGTQVTVSS", "pEC50": 8.72}
{"BINDER": "LG191D3 (VHH) VHH: EVQLVESGGGLVQAGGSLRLSCEASGRTYSRYGMGWFRQAPGKEREFVAAVSRLSGPRTVYADSVKGRFTISRDNAENTVYLQMNSLKPEDTAVYTCAAELTNRNSGAYYYAWAYDYWGQGTQVTVSS", "pEC50": 8.23}
{"BINDER": "RSVNC41 (VHH) VHH: EVQLVESGGGLVQAGGSLSISCAASGGSLSNYVLGWFRQAPGKEREFVAAINWRGDITIGPPNVEGRFTISRDNAKNTGYLQMNSLAPDDTAVYYCGAGTPLNPGAYIYDWSYDYWGRGTQVTVSS", "pEC50": 7.49}
{"BINDER": "RSVNC23 (VHH) VHH: EVQLVESGGGLVQPGGSLRLSCAASGRTFSSIAMGWFRQAPGKEREFVAAISWSRGRTFYADSVKGRFIISRDDAANTAYLQMNSLKPEDTAVYYCAVDTASWNSGSFIYDWAYDHWGQGTQVTVSS", "pEC50": 8.64}
{"BINDER": "RSVPMP15H8 (VHH) VHH: EVQLVESGGGLVQAGGSLRLSCAASGRSFSNYVLGWFRQAPGKEREFVAAISFRGDSAIGAPSVEGRFTISRDNAKNTGYLQMNSLVPDDTAVYYCGAGTPLNPGAYIYDWSYDYWGRGTQVTVSS", "pEC50": 7.41}
